molecular target: eTau2 (UniProt P10636); test: relative binding affinity, method not named; eTau 2
Consider the following binders; for each one, report its pKd.
Recall that pKd is obtained by taking minus log10 of the concentration measured in molar.

Request: Consider the binder humanized IPN002 variant VH2/Vk3 (antibody, V domains shown) VH: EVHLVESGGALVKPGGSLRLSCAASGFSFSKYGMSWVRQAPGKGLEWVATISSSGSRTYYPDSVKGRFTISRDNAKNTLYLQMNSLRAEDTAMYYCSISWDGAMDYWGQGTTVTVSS VL: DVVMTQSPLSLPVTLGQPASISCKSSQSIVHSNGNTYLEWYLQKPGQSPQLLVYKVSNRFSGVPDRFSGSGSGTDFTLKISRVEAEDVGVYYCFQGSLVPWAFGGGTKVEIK and give its recorded pKd.
Result: 9.58

Request: Query pKd for humanized IPN002 variant VH1/Vk2 (antibody, V domains shown) VH: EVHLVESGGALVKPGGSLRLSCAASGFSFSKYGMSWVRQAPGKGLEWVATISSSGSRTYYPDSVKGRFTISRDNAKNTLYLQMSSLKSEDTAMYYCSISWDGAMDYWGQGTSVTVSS VL: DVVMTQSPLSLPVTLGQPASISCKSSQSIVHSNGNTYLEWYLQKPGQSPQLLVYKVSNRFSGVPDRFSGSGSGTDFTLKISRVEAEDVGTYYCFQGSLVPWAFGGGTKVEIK
Result: 9.44

Request: Indicate the recorded pKd value for this binder: humanized IPN002 variant VH2/Vk1 (antibody, V domains shown) VH: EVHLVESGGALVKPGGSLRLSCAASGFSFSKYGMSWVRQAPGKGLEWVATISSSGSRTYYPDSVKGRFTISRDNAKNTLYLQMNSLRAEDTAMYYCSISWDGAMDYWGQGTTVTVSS VL: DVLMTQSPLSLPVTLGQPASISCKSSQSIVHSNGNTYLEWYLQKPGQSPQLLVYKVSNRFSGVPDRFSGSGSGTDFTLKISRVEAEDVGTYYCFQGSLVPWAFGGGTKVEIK
Result: 9.65

The reported numbers originate from patent US20150232544A1.
